Reference source: paper PMC4072727

Molecular target: cJun (cJun/cJun homodimer) (UniProt P05412 1-331, C269S)
Assay: EMSA; EMSA: 100 mM KCl, 4 mM MgCl2, 20 mM Tris pH 7.9, 20 mM HEPES pH 7.9, 10% glycerol, 0.1 mM DTT, 60 ug/ml BSA, 0.06% NP-40, 50 ng poly(dI-dC), on ice; 50 pM 32P-D
Details: protein: recombinant; chain copies: 2; label: 32P; three stem-loops, nt 13-68
measure: Kd (nM)

> print(dat)
                                     binder  assay.result
1  aptamer-19(12-74) (structured_DNA) DNA: TACGGCACCGTATAGTCGTACATGAACGAGTGTGAGTGTTAAGCCTTTGGCGACAGGGCTCGG           0.5
